B1: Zinc finger homeobox protein 3, residues 2147 to 2202; numbered along this chain, Q15911 (parent)
chain: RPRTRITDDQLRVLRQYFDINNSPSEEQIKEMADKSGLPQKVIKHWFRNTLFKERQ

Variants of: B1
Experiment: abundance fitness (aPCA) (normalised: wild type 0, dead -1); higher = more abundant; growth selection in yeast, the domain comes from the species named
Conditions: Homo sapiens
Kindly supply the reported abundance fitness values for the records listed here.
Give bare numbers.

// worked examples, abundance fitness included
A33V: -0.186
N22L: -0.092
A33L: -0.511
I43T: -0.54
V42S: -0.139
Q28I: -0.033

Hey, can you go through the list below and give me abundance fitness for every item?
1. R5A
2. T4D
3. R12Q
4. S23C
5. L14S
6. T50G

[-0.051, 0.029, -0.082, 0.081, -0.998, -0.187]
